experiment_notes: P-glycoprotein substrates identified in KB-3-1 adenocarcinoma cell line, qHTS therapeutic library screen (AID 1346986); further: nearly all actives have a fitted effect of over 60% in size
test_parameters: KB-3-1 parental cells viability, CellTiter-Glo, 72 h; series mostly up to 44.5 µM
Records with an inconclusive call do not appear. Activity calls are given as the source filed them. The call rests on the fitted dose curve; in most records, active means well fitted inhibition curve with a large enough effect; inconclusive means small, poorly fitted or top-dose-only effect; inactive means no such curve, though single readings can be large or run the other way.
Outcomes: label 1 = active, label 0 = inactive

{"columns": ["compound", "label_value"],
 "data": [
  ["COc1ccc2c(c1OC)CN1CCc3cc4c(cc3C1C2)OCO4 (stereo not given)", "label 1"],
  ["O=C(O)P(=O)(O)O", "label 0"],
  ["CCCC(C)(COC(N)=O)COC(=O)NC(C)C (stereo not given)", "label 0"],
  ["Cc1cc(SCc2sc(-c3ccc(C(F)(F)F)c(F)c3)nc2C)ccc1OCC(=O)O", "label 0"],
  ["CNCC(O)c1ccc(O)cc1 (stereo not given)", "label 0"]
]}
